Data provenance is PubChem BioAssay (NCATS).

Test: qHTS Assay for Lipid Storage Modulators (AID 1519)
Details: Drosophila S3 cells, BODIPY lipid droplet/cell ratio, laser cytometry; measured here: cell count channel max response; cells loaded with oleic acid
Inconclusive results are not listed.
ASSAY READOUT: max response (%)

| COMPOUND | ASSAY READOUT | VALUE UNIT | OBSERVED VALUE |
| --- | --- | --- | --- |
| Cc1c(C(N)=O)cc([N+](=O)[O-])cc1[N+](=O)[O-] | max response | % | 12.8 |
| C/C=C(/C(=C/C)c1ccc(O)cc1)c1ccc(O)cc1 | max response | % | 6.35 |
| Oc1c(I)cc(I)c2cccnc12 | max response | % | 9.29 |
| Cc1ccc(C(=O)C(C)CN2CCCCC2)cc1 (stereo not given) | max response | % | 7.21 |
| CNCCC(Oc1ccccc1C)c1ccccc1 (stereo not given) | max response | % | 19.1 |
| CC(C)N=C(N)/N=C(\N)Nc1ccc(Cl)cc1 | max response | % | -10.3 |
| N[C@@H](Cc1cnc[nH]1)C(=O)O | max response | % | -24.8 |
| CCCCCCCCCCCCCCCCOP(=O)([O-])OCC[N+](C)(C)C | max response | % | 14.5 |
| CN=C(NC#N)NCCSCc1csc(N=C(N)N)n1 | max response | % | -6.42 |
| COc1c2occc2c(OC)c2c(=O)cc(C)oc12 | max response | % | 3.81 |
| CCCCOc1ccc(C(=O)CCN2CCCCC2)cc1 | max response | % | 0.252 |
| CC(C)COC(=O)OCN1C(=O)CN(CCN2CC(=O)N(COC(=O)OCC(C)C)C(=O)C2)CC1=O | max response | % | 3.57 |
| CCN(CCCCOC(=O)c1ccc(OC)c(OC)c1)C(C)Cc1ccc(OC)cc1 (stereo not given) | max response | % | 17.5 |
| CC(Cc1cccc(C(F)(F)F)c1)NCCOC(=O)c1ccccc1 (stereo not given) | max response | % | -3.51 |
| CCCCC1=NC2(CCCC2)C(=O)N1Cc1ccc(-c2ccccc2-c2nn[nH]n2)cc1 | max response | % | 15.4 |
| COc1cc(OC)cc(OC)c1 | max response | % | -0.306 |
| c1ccc(-c2ccc(C(c3ccccc3)n3ccnc3)cc2)cc1 (stereo not given) | max response | % | 10.1 |
| OCc1ccccc1O | max response | % | -8.44 |
| CC(C)(CO)[C@@H](O)C(=O)NCCCO | max response | % | 21.8 |
| CN1CCN(CCCN2c3ccccc3Sc3ccc(S(=O)(=O)N(C)C)cc32)CC1 | max response | % | -3.59 |
| CC(=O)c1ccc2c(c1)N(CCCN1CCC(CCO)CC1)c1ccccc1S2 | max response | % | -5 |
| O=C(COc1ccc(Cl)cc1)N1CCN(Cc2ccc3c(c2)OCO3)CC1 | max response | % | -6.27 |
| NCCCC[C@H](N[C@@H](CCc1ccccc1)C(=O)O)C(=O)N1CCC[C@H]1C(=O)O | max response | % | 1.7 |
| CCC(NC(C)C)C(O)c1ccc(O)c(O)c1 (stereo not given) | max response | % | 7.27 |

----------
# reported Z-AUC; entries follow
Test: qHTS drug screen for cell cycle checkpoint inhibitors in PARPi-resistant BRCA-mutant ovarian cancer cell lines. (AID 1963452)
Settings: PEO1/OlaR viability, CellTiter-Glo luminescence, 96 h; stronger effect = lower value
ASSAY READOUT: Z-AUC

| ENTRY SMILES | OBSERVED VALUE |
| --- | --- |
| COc1cc2c(cc1O)CC[C@@H]1[C@@H]2CC[C@]2(C)[C@@H](O)CC[C@@H]12 | 0.212 |
| C[C@]12CC[C@@H]3c4ccc(O)cc4CC[C@H]3[C@@H]1CC[C@@H]2O | 0.573 |
| COc1cc(NS(C)(=O)=O)ccc1Nc1c2ccccc2nc2ccccc12 | -0.779 |
| CC1(C)O[C@@H]2C[C@H]3[C@@H]4C[C@H](F)C5=CC(=O)C=C[C@]5(C)[C@H]4[C@@H](O)C[C@]3(C)[C@]2(C(=O)CO)O1 | 0.212 |
| CC/C(=C(/CC)c1ccc(O)cc1)c1ccc(O)cc1 | -0.318 |
| C[C@]12CC[C@@H]3c4ccc(O)cc4CC[C@H]3[C@@H]1C[C@@H](O)[C@@H]2O | -0.032 |
| CC[C@H](C)C(=O)O[C@H]1CCC=C2C=C[C@H](C)[C@H](CC[C@@H]3C[C@@H](O)CC(=O)O3)[C@H]21 | 1.25 |
| C[C@]12CCC(=O)C=C1[C@@H]1C[C@@H]1[C@H]1[C@@H]3[C@@H]4C[C@@H]4[C@@]4(CCC(=O)O4)[C@@]3(C)CC[C@@H]12 | 1.29 |
| COC(=O)[C@@H]1CC2=CC(=O)CC[C@]2(C)[C@@]23O[C@@H]2C[C@@]2(C)[C@@H](CC[C@@]24CCC(=O)O4)[C@H]13 | -0.162 |
| CC(=O)O[C@]1(C(C)=O)CC[C@H]2[C@@H]3C[C@H](C)C4=CC(=O)CC[C@]4(C)[C@H]3CC[C@@]21C | -1.26 |
| Cc1cc2c(cc1CC(=O)c1sccc1S(=O)(=O)Nc1onc(C)c1Cl)OCO2 | 0.64 |
| CC(=O)N(O)CCCCCNC(=O)CCC(=O)N(O)CCCCCNC(=O)CCC(=O)N(O)CCCCCN | -0.069 |

----------
Tested on: TAB113
Assay: qHTS profiling for inhibitors of Plasmodium falciparum proliferation (AID 504749); also: nearly all actives have a fitted effect of over 60% in size
Settings: P. falciparum in erythrocytes, SYBR Green DNA, 72 h; series mostly up to 28.7 µM
Procedure: NIH National Institute of Allergy and Infectious Diseases [NIAID] NIH Chemical Genomics Center [NCGC] […] Because mature erythrocytes lack DNA, only Plasmodium-derived DNA is detected. NCGC Assay Protocol Summary: The SYBR Green viability assay was adapted from a method described previously (Plouffe et al., 2008). […] The following morning, fluorescence intensity at 485(14) nm excitation and 535(25) nm emission wavelengths was measured on an EnVision (Perkin Elmer) plate reader. […]
Inconclusive results are not listed. Activity calls are given as the source filed them. Calls follow the shape of the dose curve; as a rule, active = well fitted inhibition curve with a large enough effect; inconclusive = small, poorly fitted or top-dose-only effect; inactive = flat fitted curve, though single readings scatter.
Labels: active, inactive

| MOLECULE | SUBJECT OF TEST | CLASS LABEL |
| --- | --- | --- |
| C[N+]1(CCCCC[N+]2(C)CCCC2)CCCC1 | TAB113 | inactive |
| CN(C)C(=S)SC(=S)N(C)C | TAB113 | active |
| CCCCC1=NC2(CCCC2)C(=O)N1Cc1ccc(-c2ccccc2-c2nn[nH]n2)cc1 | TAB113 | inactive |
| CN=C(NC#N)NCCSCc1csc(N=C(N)N)n1 | TAB113 | inactive |
| CC[N+](CC)(CCNC(=O)C(=O)NCC[N+](CC)(CC)Cc1ccccc1Cl)Cc1ccccc1Cl | TAB113 | active |
| CCCN1CCCC[C@H]1C(=O)Nc1c(C)cccc1C | TAB113 | inactive |
| CN1CCN(C(c2ccccc2)c2ccccc2)CC1 | TAB113 | inactive |
| CCCCC(CC)CN=C(N)NC(N)=NCCCCCCN=C(N)NC(N)=NCC(CC)CCCC (stereo not drawn) | TAB113 | active |
| CN1C(CCl)Nc2cc(Cl)c(S(N)(=O)=O)cc2S1(=O)=O (stereo not drawn) | TAB113 | inactive |
| Oc1ccc(Cl)c2cccnc12 | TAB113 | inactive |
| COc1c(C)c2c(c(O)c1C/C=C(\C)CCC(=O)O)C(=O)OC2 | TAB113 | active |
| c1ccc(-c2ccc(C(c3ccccc3)n3ccnc3)cc2)cc1 (stereo not drawn) | TAB113 | active |
| CC(=O)c1ccc2c(c1)N(CCCN1CCC(CCO)CC1)c1ccccc1S2 | TAB113 | inactive |
| CC(O)(P(=O)(O)O)P(=O)(O)O | TAB113 | inactive |
| CCCCCC=CCC=CCCCCCCCC(=O)OCC | TAB113 | inactive |
| CCn1cc(C(=O)O)c(=O)c2cnc(N3CCCC3)nc21 | TAB113 | inactive |
| COCc1c(C(C)C)nc(C(C)C)c(/C=C/[C@@H](O)C[C@@H](O)CC(=O)O)c1-c1ccc(F)cc1 | TAB113 | inactive |
| COc1cccc2c1C(=O)c1c(O)c3c(c(O)c1C2=O)C[C@@](O)(C(C)=O)C[C@@H]3O[C@H]1C[C@H](N)[C@H](O)[C@H](C)O1 | TAB113 | active |
| COc1cc2c(cc1OC)C(C(C(=O)N(CCc1ccc(OC)c(OC)c1OC)CCc1ccc(OC)c(OC)c1OC)c1ccccc1)=NCC2 (stereo not drawn) | TAB113 | active |
| OCc1ccccc1O | TAB113 | inactive |
| O=C(COc1ccc(Cl)cc1)N1CCN(Cc2ccc3c(c2)OCO3)CC1 | TAB113 | inactive |
| O=C1c2ccccc2C(=O)C1c1ccccc1 | TAB113 | inactive |
| c1ccc(OCc2ccc(CCCN3CCOCC3)cc2)cc1 | TAB113 | inactive |
